# experiment: Antagonist activity at NMDA receptor (unknown origin)
# Design: species or system Homo sapiens

molecule	IC50 / µM
F[C@]12CC3C[C@](NCCCCCNc4c5c(nc6cc(Cl)ccc46)CCCC5)(C[C@H](C1)c1ccccc13)C2	0.9
c1ccc(CNC23OC4C5C6CC(C7C6C4C72)C53)cc1 (configuration not stated)	2.98

----------
Reported values of pIC50 for individual entries
# assayed system: Acetylcholinesterase (Homo sapiens)
# Sequence (P22303 whole entry): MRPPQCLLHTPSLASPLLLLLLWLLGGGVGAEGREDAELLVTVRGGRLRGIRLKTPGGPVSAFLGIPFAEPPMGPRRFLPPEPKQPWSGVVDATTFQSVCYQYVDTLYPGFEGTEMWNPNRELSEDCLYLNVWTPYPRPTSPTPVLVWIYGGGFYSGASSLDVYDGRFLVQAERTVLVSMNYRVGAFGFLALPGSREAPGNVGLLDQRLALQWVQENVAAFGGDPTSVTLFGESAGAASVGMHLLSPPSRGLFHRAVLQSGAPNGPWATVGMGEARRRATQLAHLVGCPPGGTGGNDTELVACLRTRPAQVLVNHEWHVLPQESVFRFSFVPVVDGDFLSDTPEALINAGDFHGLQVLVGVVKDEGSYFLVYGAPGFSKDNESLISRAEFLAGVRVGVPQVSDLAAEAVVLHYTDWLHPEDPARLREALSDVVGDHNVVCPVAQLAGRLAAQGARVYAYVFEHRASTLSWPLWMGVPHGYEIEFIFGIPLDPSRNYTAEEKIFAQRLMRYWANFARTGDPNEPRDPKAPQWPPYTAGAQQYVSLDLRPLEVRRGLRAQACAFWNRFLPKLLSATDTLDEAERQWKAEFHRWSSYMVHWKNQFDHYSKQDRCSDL
# experiment: Inhibition of human AChE
pIC50: −log10 of the molar value.

smiles str	pIC50
Brc1ccc(Cn2cc(CNC34CC5CC(CC(C5)C3)C4)nn2)cc1	7.04
COc1ccc2nc3c(c(NCCCCCNC(=S)N[C@]45CC6C[C@@H](C[C@@H](C6)C4)C5)c2c1)CCCC3	6.33
Brc1ccc(Cn2cc(CNC3CCCCCC3)nn2)cc1	6.21
Clc1ccc(Cn2cc(CNC3CCCCCC3)nn2)cc1	6.03
Clc1ccc(Cn2cc(CNC34CC5CC(CC(C5)C3)C4)nn2)cc1	6.88

----------
# assayed system: UniProt:P22303
# experiment: Inhibition of AChE (unknown origin)
pIC50: −log10 of the molar value.
Reported values of pIC50 for individual entries

compound	pIC50
Cc1ccc(-c2cn(Cc3ccc4ccccc4c3)nn2)cc1C(=O)NCCN1CCOCC1	5.14
COc1ccc2c(c1)c(=O)c1ccccc1n2Cc1cn(Cc2ccc(Cl)cc2)nn1	5.14
CC12CC3CC(C)(C1)CC(N)(C3)C2 [MEMANTINE]	6.11

----------
# experiment: Selectivity index, ratio of IC50 for equine serum BuChE to IC50 for electric eel AChE
Reported values of Ratio IC50 for individual entries

smiles str	Ratio IC50
Fc1ccc(Cn2cc(CNC3CCCCCC3)nn2)cc1	5.75
c1ccc(Cn2cc(CNC34CC5CC(CC(C5)C3)C4)nn2)cc1	13.1
Clc1ccc(Cn2cc(CNC3CCCCCC3)nn2)cc1	27.1
O=[N+]([O-])c1ccc(Cn2cc(CNC3CCCCCC3)nn2)cc1	4.14
Cc1ccc(Cn2cc(CNC34CC5CC(CC(C5)C3)C4)nn2)cc1	17.8
CC(C)c1ccc(Cn2cc(CNC34CC5CC(CC(C5)C3)C4)nn2)cc1	9.79
Fc1ccc(Cn2cc(CNC34CC5CC(CC(C5)C3)C4)nn2)cc1	16.9
c1ccc(Cn2cc(CNC3CCCCCC3)nn2)cc1	8.02
CC(C)c1ccc(Cn2cc(CNC3CCCCCC3)nn2)cc1	10.3
Brc1ccc(Cn2cc(CNC34CC5CC(CC(C5)C3)C4)nn2)cc1	29.6
O=[N+]([O-])c1ccc(Cn2cc(CNC34CC5CC(CC(C5)C3)C4)nn2)cc1	5.93

----------
# assayed system: Glutamate receptor ionotropic, NMDA 2A (Homo sapiens, UniProt Q05586+Q12879)
# Sequence (Q12879 whole entry, one chain of several): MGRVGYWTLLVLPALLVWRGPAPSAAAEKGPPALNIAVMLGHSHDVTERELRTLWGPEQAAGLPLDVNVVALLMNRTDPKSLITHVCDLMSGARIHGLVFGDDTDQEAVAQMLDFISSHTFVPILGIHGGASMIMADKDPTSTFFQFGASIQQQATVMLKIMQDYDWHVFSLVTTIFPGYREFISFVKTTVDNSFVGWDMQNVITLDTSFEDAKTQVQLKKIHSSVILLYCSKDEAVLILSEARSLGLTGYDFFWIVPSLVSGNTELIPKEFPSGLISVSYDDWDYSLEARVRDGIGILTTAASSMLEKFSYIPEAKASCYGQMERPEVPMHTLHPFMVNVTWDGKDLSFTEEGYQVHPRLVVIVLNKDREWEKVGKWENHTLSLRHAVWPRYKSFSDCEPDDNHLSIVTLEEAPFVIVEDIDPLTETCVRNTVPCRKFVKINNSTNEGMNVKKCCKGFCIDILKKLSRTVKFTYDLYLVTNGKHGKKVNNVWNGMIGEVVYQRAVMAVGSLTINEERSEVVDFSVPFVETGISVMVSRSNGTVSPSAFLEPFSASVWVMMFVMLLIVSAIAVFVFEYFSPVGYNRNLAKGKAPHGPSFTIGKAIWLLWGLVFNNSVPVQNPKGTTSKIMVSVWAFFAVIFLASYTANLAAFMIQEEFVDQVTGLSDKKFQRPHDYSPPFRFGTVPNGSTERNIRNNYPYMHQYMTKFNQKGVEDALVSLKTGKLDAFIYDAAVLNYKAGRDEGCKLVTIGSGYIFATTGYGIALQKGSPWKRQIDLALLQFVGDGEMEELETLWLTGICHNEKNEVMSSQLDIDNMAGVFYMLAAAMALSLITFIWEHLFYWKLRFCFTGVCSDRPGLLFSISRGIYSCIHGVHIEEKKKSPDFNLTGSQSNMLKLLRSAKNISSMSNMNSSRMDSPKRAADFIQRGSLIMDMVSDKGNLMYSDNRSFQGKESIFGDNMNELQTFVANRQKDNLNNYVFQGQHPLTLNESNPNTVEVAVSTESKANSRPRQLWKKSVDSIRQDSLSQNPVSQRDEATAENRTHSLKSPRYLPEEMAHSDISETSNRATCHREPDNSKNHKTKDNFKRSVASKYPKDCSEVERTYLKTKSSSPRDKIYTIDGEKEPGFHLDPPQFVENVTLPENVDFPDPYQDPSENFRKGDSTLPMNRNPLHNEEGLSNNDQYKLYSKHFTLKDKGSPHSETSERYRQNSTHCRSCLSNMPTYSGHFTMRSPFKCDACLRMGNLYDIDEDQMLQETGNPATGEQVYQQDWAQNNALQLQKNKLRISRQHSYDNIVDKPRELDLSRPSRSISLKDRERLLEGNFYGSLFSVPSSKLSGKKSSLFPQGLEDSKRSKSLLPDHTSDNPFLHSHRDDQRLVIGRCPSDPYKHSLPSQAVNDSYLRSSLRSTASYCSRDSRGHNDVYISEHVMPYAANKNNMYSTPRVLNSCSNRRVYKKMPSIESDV
# experiment: Antagonist activity at GluN2A NMDA receptor (unknown origin)
pIC50: −log10 of the molar value.

molecule	pIC50
CC(C(O)c1ccc(O)cc1)N1CCC(Cc2ccccc2)CC1 (stereo unspecified)	3.84

----------
Reported values of IC50 for individual entries
# experiment: Antagonist activity at GluN1-1b/GluN2D (unknown origin) expressed in xenopus laevis oocytes assessed as inhibition of glycine/glutamate-induced channel current incubated for 20s measured at holding potential of -70 mV by two-electrode voltage clamp technique
# Format: cell-based
# assay conditions: Homo sapiens, Oocyte

compound	IC50 / µM
CC12CC3CC(C)(C1)CC(N)(C3)C2 [MEMANTINE]	0.592
Brc1ccc(Cn2cc(CNC34CC5CC(CC(C5)C3)C4)nn2)cc1	99.5
Clc1ccc(Cn2cc(CNC34CC5CC(CC(C5)C3)C4)nn2)cc1	239

----------
# experiment: in vitro
# assay conditions: PAMPA
# Description: Permeability of the compound at 25 ug/ml incubated or 18 hrs by PAMPA-BBB assay
Reported values of Papp at 18 h, 25 ug/ml for individual entries
readout label: Papp at 18 h, 25 ug/ml

compound	assay value
c1ccc(Cn2cc(CNC34CC5CC(CC(C5)C3)C4)nn2)cc1	6.95 ×10⁻⁶ cm/s
Brc1ccc(Cn2cc(CNC34CC5CC(CC(C5)C3)C4)nn2)cc1	8.75 ×10⁻⁶ cm/s
Fc1ccc(Cn2cc(CNC3CCCCCC3)nn2)cc1	8.42 ×10⁻⁶ cm/s
CC(C)c1ccc(Cn2cc(CNC34CC5CC(CC(C5)C3)C4)nn2)cc1	7.63 ×10⁻⁶ cm/s
CC12CC3CC(C)(C1)CC(N)(C3)C2 [MEMANTINE]	6.84 ×10⁻⁶ cm/s
O=[N+]([O-])c1ccc(Cn2cc(CNC34CC5CC(CC(C5)C3)C4)nn2)cc1	6.83 ×10⁻⁶ cm/s
Clc1ccc(Cn2cc(CNC34CC5CC(CC(C5)C3)C4)nn2)cc1	8.24 ×10⁻⁶ cm/s
CC(C)c1ccc(Cn2cc(CNC3CCCCCC3)nn2)cc1	7.24 ×10⁻⁶ cm/s
Cc1ccc(Cn2cc(CNC34CC5CC(CC(C5)C3)C4)nn2)cc1	7.48 ×10⁻⁶ cm/s
O=[N+]([O-])c1ccc(Cn2cc(CNC3CCCCCC3)nn2)cc1	6.31 ×10⁻⁶ cm/s
Cc1ccc(Cn2cc(CNC3CCCCCC3)nn2)cc1	7.35 ×10⁻⁶ cm/s
Clc1ccc(Cn2cc(CNC3CCCCCC3)nn2)cc1	6.84 ×10⁻⁶ cm/s
Brc1ccc(Cn2cc(CNC3CCCCCC3)nn2)cc1	6.72 ×10⁻⁶ cm/s
Fc1ccc(Cn2cc(CNC34CC5CC(CC(C5)C3)C4)nn2)cc1	7.75 ×10⁻⁶ cm/s
c1ccc(Cn2cc(CNC3CCCCCC3)nn2)cc1	7.2 ×10⁻⁶ cm/s

----------
# experiment: Antagonist activity at NMDA receptor (unknown origin)
# Design: species or system Homo sapiens
pKi: −log10 of the molar value.

smiles str	pKi
COc1ccc2nc3c(c(NCCCCCNC(=S)N[C@]45CC6C[C@@H](C[C@@H](C6)C4)C5)c2c1)CCCC3	5.74

----------
IC50, Acetylcholinesterase (Electrophorus electricus, UniProt O42275), per-entry values.
readout label: IC50 (nM)

smiles str	unit descriptor	assay value
CC(C)c1ccc(Cn2cc(CNC34CC5CC(CC(C5)C3)C4)nn2)cc1	nM	799
Cc1ccc(Cn2cc(CNC34CC5CC(CC(C5)C3)C4)nn2)cc1	nM	340
c1ccc(Cn2cc(CNC34CC5CC(CC(C5)C3)C4)nn2)cc1	nM	360
Brc1ccc(Cn2cc(CNC3CCCCCC3)nn2)cc1	nM	550
O=[N+]([O-])c1ccc(Cn2cc(CNC34CC5CC(CC(C5)C3)C4)nn2)cc1	nM	1610
Fc1ccc(Cn2cc(CNC3CCCCCC3)nn2)cc1	nM	1820
Fc1ccc(Cn2cc(CNC34CC5CC(CC(C5)C3)C4)nn2)cc1	nM	194
c1ccc(Cn2cc(CNC3CCCCCC3)nn2)cc1	nM	1410
Cc1ccc(Cn2cc(CNC3CCCCCC3)nn2)cc1	nM	1220
Clc1ccc(Cn2cc(CNC3CCCCCC3)nn2)cc1	nM	607
CC(C)c1ccc(Cn2cc(CNC3CCCCCC3)nn2)cc1	nM	1520
Brc1ccc(Cn2cc(CNC34CC5CC(CC(C5)C3)C4)nn2)cc1	nM	86
O=[N+]([O-])c1ccc(Cn2cc(CNC3CCCCCC3)nn2)cc1	nM	4640
Clc1ccc(Cn2cc(CNC34CC5CC(CC(C5)C3)C4)nn2)cc1	nM	135

----------
# experiment: Selectivity index, ratio of IC50 for equine serum BuChE to IC50 for electric eel AChE
readout label: Ratio IC50

smiles str	assay value
Cc1ccc(Cn2cc(CNC3CCCCCC3)nn2)cc1	15.8
Clc1ccc(Cn2cc(CNC34CC5CC(CC(C5)C3)C4)nn2)cc1	28.1
Brc1ccc(Cn2cc(CNC3CCCCCC3)nn2)cc1	31.4

----------
# assayed system: Cholinesterase (Equus caballus, UniProt P81908)
# Sequence (P81908 whole entry): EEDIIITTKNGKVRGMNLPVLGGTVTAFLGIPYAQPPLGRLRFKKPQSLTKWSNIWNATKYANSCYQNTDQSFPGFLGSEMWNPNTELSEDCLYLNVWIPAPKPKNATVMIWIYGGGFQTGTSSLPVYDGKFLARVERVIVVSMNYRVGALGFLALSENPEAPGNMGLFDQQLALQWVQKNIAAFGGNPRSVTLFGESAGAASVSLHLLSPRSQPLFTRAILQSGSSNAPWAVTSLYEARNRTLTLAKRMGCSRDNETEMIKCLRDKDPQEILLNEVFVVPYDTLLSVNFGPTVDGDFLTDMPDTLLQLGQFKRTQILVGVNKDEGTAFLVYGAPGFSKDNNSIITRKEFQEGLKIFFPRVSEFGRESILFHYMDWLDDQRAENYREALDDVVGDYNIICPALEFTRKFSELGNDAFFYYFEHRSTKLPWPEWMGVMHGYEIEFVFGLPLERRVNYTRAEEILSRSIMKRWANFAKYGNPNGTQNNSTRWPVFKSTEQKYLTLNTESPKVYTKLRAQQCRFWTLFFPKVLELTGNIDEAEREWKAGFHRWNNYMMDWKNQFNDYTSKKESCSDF
# experiment: Inhibition of equine serum BuChE using butyrylthiocholine iodide as substrate preincubated with enzyme for 10 mins followed by substrate addition and measured every 1 min for 20 mins by spectrophotometric analysis
Reported values of IC50 for individual entries

smiles str	IC50, µM
O=[N+]([O-])c1ccc(Cn2cc(CNC34CC5CC(CC(C5)C3)C4)nn2)cc1	9.54
Brc1ccc(Cn2cc(CNC34CC5CC(CC(C5)C3)C4)nn2)cc1	2.55
Brc1ccc(Cn2cc(CNC3CCCCCC3)nn2)cc1	17.3
CC(C)c1ccc(Cn2cc(CNC34CC5CC(CC(C5)C3)C4)nn2)cc1	7.83
Cc1ccc(Cn2cc(CNC34CC5CC(CC(C5)C3)C4)nn2)cc1	6.04
c1ccc(Cn2cc(CNC3CCCCCC3)nn2)cc1	11.4
Fc1ccc(Cn2cc(CNC34CC5CC(CC(C5)C3)C4)nn2)cc1	3.27
CC(C)c1ccc(Cn2cc(CNC3CCCCCC3)nn2)cc1	15.7
Clc1ccc(Cn2cc(CNC34CC5CC(CC(C5)C3)C4)nn2)cc1	3.8
Clc1ccc(Cn2cc(CNC3CCCCCC3)nn2)cc1	16.5
O=[N+]([O-])c1ccc(Cn2cc(CNC3CCCCCC3)nn2)cc1	19.2
c1ccc(Cn2cc(CNC34CC5CC(CC(C5)C3)C4)nn2)cc1	4.72
Cc1ccc(Cn2cc(CNC3CCCCCC3)nn2)cc1	19.3
Fc1ccc(Cn2cc(CNC3CCCCCC3)nn2)cc1	10.5

These entries and their values trace back to ChEMBL document CHEMBL5625199.
